Test system: L. crispatus and E. coli
procedureDetails: Therapeutic Effect Protocol: L. crispatus / E. coli co-culture, ratio after 36 hours
Assay type: cell-based, Lactobacillus crispatus; E. coli
condition: nitrogen compound 0.10 wt/vol % with 1.0 wt/vol % α methyl-D glucoside (10:1); 36 hours anaerobic co-culture, 37° C.
Where a SMILES comes first, the peptide text is derived from it.
Reported Therapeutic Efficacy Results (Lactobacillus/E. coli) 0.10% values for the following compounds.
reportedEndpoint: Therapeutic Efficacy Results (Lactobacillus/E. coli) 0.10%

>  <compound>
C[C@@H](O)[C@H](N)C(=O)O

>  <subjectOfTest>
L. crispatus and E. coli

>  <valueQualifier>
=

>  <observedResult>
0.74

$$$$
>  <compound>
NO [Hydroxylamine]

>  <subjectOfTest>
L. crispatus and E. coli

>  <valueQualifier>
=

>  <observedResult>
0.20

$$$$
>  <compound>
NCC(=O)N[C@@H](CCC(=O)O)C(=O)O [Gly-Glu] (H-Gly-Glu-OH)

>  <subjectOfTest>
L. crispatus and E. coli

>  <valueQualifier>
=

>  <observedResult>
6.83

$$$$
>  <compound>
N[C@@H](Cc1ccccc1)C(=O)O

>  <subjectOfTest>
L. crispatus and E. coli

>  <valueQualifier>
=

>  <observedResult>
0.09

$$$$
>  <compound>
O=c1cc[nH]c(=O)[nH]1

>  <subjectOfTest>
L. crispatus and E. coli

>  <valueQualifier>
=

>  <observedResult>
0.43

$$$$
>  <compound>
CSCC[C@H](N)C(=O)O

>  <subjectOfTest>
L. crispatus and E. coli

>  <valueQualifier>
>

>  <observedResult>
1.71E+05

$$$$
>  <compound>
N[C@@H](Cc1c[nH]cn1)C(=O)O

>  <subjectOfTest>
L. crispatus and E. coli

>  <valueQualifier>
=

>  <observedResult>
1.11

$$$$
>  <compound>
CCC(N)C(=O)O (racemic)

>  <subjectOfTest>
L. crispatus and E. coli

>  <valueQualifier>
=

>  <observedResult>
0.34

$$$$
>  <compound>
N[C@@H](CCC(=O)O)C(=O)O

>  <subjectOfTest>
L. crispatus and E. coli

>  <valueQualifier>
=

>  <observedResult>
2.81

$$$$
>  <compound>
OC[C@H]1O[C@@H](n2cnc3c(O)ncnc32)[C@H](O)[C@@H]1O

>  <subjectOfTest>
L. crispatus and E. coli

>  <valueQualifier>
=

>  <observedResult>
2.75E+04

$$$$
>  <compound>
Cl.N[C@H]1C(O)O[C@H](CO)[C@@H](O)[C@@H]1O (stereo partly drawn) [D-Glucosamine HCL]

>  <subjectOfTest>
L. crispatus and E. coli

>  <valueQualifier>
=

>  <observedResult>
77.8

$$$$

---

Test system: L. crispatus and E. coli
procedureDetails: Therapeutic Effect Protocol: L. crispatus / E. coli co-culture, ratio after 36 hours
Format: cell-based, Lactobacillus crispatus; E. coli
condition: nitrogen compound 0.10 wt/vol % with 1.0 wt/vol % α methyl-D glucoside (10:1); 36 hours anaerobic co-culture, 37° C.
Where a SMILES comes first, the peptide text is derived from it.
reportedEndpoint: Therapeutic Efficacy Results (Lactobacillus/E. coli) 0.10%

>  <molecule>
Nc1ncnc2c1ncn2[C@@H]1O[C@H](CO)[C@@H](O)[C@H]1O [Adenosine]

>  <subjectOfTest>
L. crispatus and E. coli

>  <valueQualifier>
<

>  <observedResult>
100

$$$$
>  <molecule>
O=C(O)[C@@H]1CCCN1 [L-Proline]

>  <subjectOfTest>
L. crispatus and E. coli

>  <valueQualifier>
=

>  <observedResult>
1.88

$$$$
>  <molecule>
NCC(=O)O [Glycine]

>  <subjectOfTest>
L. crispatus and E. coli

>  <valueQualifier>
=

>  <observedResult>
0.56

$$$$
>  <molecule>
Cl.N[C@H]1C(O)O[C@H](CO)[C@H](O)[C@@H]1O (stereo partly drawn) [D-Galactosamine HCL]

>  <subjectOfTest>
L. crispatus and E. coli

>  <valueQualifier>
=

>  <observedResult>
6.72

$$$$
>  <molecule>
N=C(N)NCCC[C@H](N)C(=O)O [L-Arginine]

>  <subjectOfTest>
L. crispatus and E. coli

>  <valueQualifier>
=

>  <observedResult>
0.58

$$$$
>  <molecule>
Cl.NCCC[C@H](N)C(=O)O [L-Ornthine]

>  <subjectOfTest>
L. crispatus and E. coli

>  <valueQualifier>
=

>  <observedResult>
1.31

$$$$
>  <molecule>
Nc1ccn([C@@H]2O[C@H](CO)[C@@H](O)[C@H]2O)c(=O)n1 [Cytidine]

>  <subjectOfTest>
L. crispatus and E. coli

>  <valueQualifier>
>

>  <observedResult>
103

$$$$
>  <molecule>
C[C@H](N)C(=O)N[C@H](C(=O)O)[C@@H](C)O [H-Ala-Thr-OH] (H-Ala-Thr-OH)

>  <subjectOfTest>
L. crispatus and E. coli

>  <valueQualifier>
=

>  <observedResult>
212

$$$$
>  <molecule>
CC(C)C[C@H](N)C(=O)O [L-Leucine]

>  <subjectOfTest>
L. crispatus and E. coli

>  <valueQualifier>
=

>  <observedResult>
2.9

$$$$
>  <molecule>
Cl.N[C@@H]1C(O)O[C@H](CO)[C@@H](O)[C@@H]1O (stereo partly drawn) [D-mannosamine HCl]

>  <subjectOfTest>
L. crispatus and E. coli

>  <valueQualifier>
=

>  <observedResult>
0.202

$$$$

---

Test system: L. crispatus and E. coli
procedureDetails: Therapeutic Effect Protocol: L. crispatus / E. coli co-culture, ratio after 36 hours
Format: cell-based, Lactobacillus crispatus; E. coli
condition: nitrogen compound 0.10 wt/vol % with 1.0 wt/vol % α methyl-D glucoside (10:1); 36 hours anaerobic co-culture, 37° C.
reportedEndpoint: Therapeutic Efficacy Results (Lactobacillus/E. coli) 0.10%

>  <structureNotation>
N[C@@H](CS)C(=O)O

>  <observedResult>
>299

$$$$
>  <structureNotation>
NCCCC[C@H](N)C(=O)O

>  <observedResult>
>141

$$$$
>  <structureNotation>
N[C@@H](CCO)C(=O)O

>  <observedResult>
>750

$$$$
